Cited source for all entries: patent US8585942B2

experiment: Particle size characterisation by laser diffraction (Mastersizer 2000); type: physicochemical; conditions: budesonide particles; diameter for the smallest particles up to 90% of the material analyzed
experimental-readout: Particle size distribution d(0.9)′

- compound: "CCCC1O[C@@H]2C[C@H]3[C@@H]4CCC5=CC(=O)C=C[C@]5(C)[C@H]4[C@@H](O)C[C@]3(C)[C@]2(C(=O)CO)O1 (some centres unmarked) [Example 1, budesonide]"
  experimental-readout: "Particle size distribution d(0.9)′"
  measured-value: "≦7.9 μm"
- compound: "CCCC1O[C@@H]2C[C@H]3[C@@H]4CCC5=CC(=O)C=C[C@]5(C)[C@H]4[C@@H](O)C[C@]3(C)[C@]2(C(=O)CO)O1 (some centres unmarked) [Example 5, budesonide]"
  experimental-readout: "Particle size distribution d(0.9)′"
  measured-value: "≦7.9 μm"

---

assay: Particle size characterisation by laser diffraction (Mastersizer 2000); format: physicochemical; conditions: budesonide particles
// reported Spec. Surface Area for each item listed
Lab book: enter the figure in m^2/g, no units written.

Here are 4 compounds together with their reported answers.
- compound: "CCCC1O[C@@H]2C[C@H]3[C@@H]4CCC5=CC(=O)C=C[C@]5(C)[C@H]4[C@@H](O)C[C@]3(C)[C@]2(C(=O)CO)O1 (some centres unmarked) [Example 3, budesonide]"
  measured-value: 1.6
- compound: "CCCC1O[C@@H]2C[C@H]3[C@@H]4CCC5=CC(=O)C=C[C@]5(C)[C@H]4[C@@H](O)C[C@]3(C)[C@]2(C(=O)CO)O1 (some centres unmarked) [Example 1, budesonide]"
  measured-value: 1.7
- compound: "CCCC1O[C@@H]2C[C@H]3[C@@H]4CCC5=CC(=O)C=C[C@]5(C)[C@H]4[C@@H](O)C[C@]3(C)[C@]2(C(=O)CO)O1 (some centres unmarked) [Example 4, budesonide]"
  measured-value: 0.6
- compound: "CCCC1O[C@@H]2C[C@H]3[C@@H]4CCC5=CC(=O)C=C[C@]5(C)[C@H]4[C@@H](O)C[C@]3(C)[C@]2(C(=O)CO)O1 (some centres unmarked) [Example 2, budesonide]"
  measured-value: 1.7

In the following, a different compound is considered.
*Q* Give its Spec. Surface Area value. Item: CCCC1O[C@@H]2C[C@H]3[C@@H]4CCC5=CC(=O)C=C[C@]5(C)[C@H]4[C@@H](O)C[C@]3(C)[C@]2(C(=O)CO)O1 (some centres unmarked) [Example 5, budesonide]
*A* 1.7
